All values here come from paper PMC6891325.

MEASUREMENT_TYPE: melting point

The examples below pair each entry with its known result.
>  <COMPOUND>
COc1cc(-c2ccccc2OC)cc(-c2cc(Cl)sc2Cl)n1 [6e]

>  <melting point>
135 to 136 °C

$$$$
>  <COMPOUND>
COc1cc(-c2ccc(Br)cc2)cc(-c2cc(Cl)sc2Cl)n1 [6d]

>  <melting point>
148 to 149 °C

$$$$
>  <COMPOUND>
COc1cccc(-c2cc(-c3cc(Cl)sc3Cl)nc(OC)c2C#N)c1 [5f]

>  <melting point>
179 to 180 °C

$$$$
>  <COMPOUND>
COc1cccc(-c2cc(OC)nc(-c3cc(Cl)sc3Cl)c2)c1 [6f]

>  <melting point>
156 to 157 °C

$$$$

Then this compound:
Name the reported melting point value associated with the compound COc1cc(-c2cccc([N+](=O)[O-])c2)cc(-c2cc(Cl)sc2Cl)n1 [6g] 182 to 183 °C

====

system: DU145; test: MTT cytotoxicity assay, DU145 prostate cancer cells; format: cell-based, human; settings: Homo sapiens, DU-145; DU145 prostate cancer cells, MTT
pIC50: −log10 of the molar value.
Quick rule: pIC50 of at least 5 means True, below that means False.

Completed entries (count: 5):
>  <COMPOUND>
COc1nc(-c2cc(Cl)sc2Cl)cc(-c2ccc(Br)cc2)c1C#N

>  <CAT>
True

$$$$
>  <COMPOUND>
COc1cc(-c2cccc([N+](=O)[O-])c2)cc(-c2cc(Cl)sc2Cl)n1

>  <CAT>
False

$$$$
>  <COMPOUND>
COc1cc(-c2ccc(C)cc2)cc(-c2cc(Cl)sc2Cl)n1

>  <CAT>
False

$$$$
>  <COMPOUND>
COc1nc(-c2cc(Cl)sc2Cl)cc(-c2cccc([N+](=O)[O-])c2)c1C#N

>  <CAT>
True

$$$$
>  <COMPOUND>
COc1nc(-c2cc(Cl)sc2Cl)cc(-c2ccc([N+](=O)[O-])cc2)c1C#N

>  <CAT>
True

$$$$

In plain terms: is recorded pIC50 at least 5 for COc1cccc(-c2cc(OC)nc(-c3cc(Cl)sc3Cl)c2)c1 ? False

What would you report for COc1ccc(-c2cc(-c3cc(Cl)sc3Cl)nc(OC)c2C#N)cc1Br ? True

What would you report for COc1nc(-c2cc(Cl)sc2Cl)cc(-c2ccc(Cl)cc2)c1C#N ? False

What would you report for COc1nc(-c2cc(Cl)sc2Cl)cc(-c2ccccc2)c1C#N ? False

What would you report for COc1cccc(-c2cc(-c3cc(Cl)sc3Cl)nc(OC)c2C#N)c1 ? False

What would you report for COc1cc(-c2ccccc2)cc(-c2cc(Cl)sc2Cl)n1 ? False

====

tested on: DU145; test: MTT cytotoxicity assay, DU145 prostate cancer cells; assay type: cell-based, human; conditions: selectivity index relative to normal human fibroblasts HSF1184
Item-by-item account of SI (DU145)
Respond with the number and no other words.

The examples below pair each entry with its known result.
>  <COMPOUND>
COc1nc(-c2cc(Cl)sc2Cl)cc(-c2ccc(Br)cc2)c1C#N

>  <MEASUREMENT_TYPE>
SI (DU145)

>  <MEASUREMENT>
116.65

$$$$
>  <COMPOUND>
COc1cccc(-c2cc(OC)nc(-c3cc(Cl)sc3Cl)c2)c1

>  <MEASUREMENT_TYPE>
SI (DU145)

>  <MEASUREMENT>
5.68

$$$$
>  <COMPOUND>
COc1cccc(-c2cc(-c3cc(Cl)sc3Cl)nc(OC)c2C#N)c1

>  <MEASUREMENT_TYPE>
SI (DU145)

>  <MEASUREMENT>
3.48

$$$$
>  <COMPOUND>
COc1cc(-c2ccc(Br)cc2)cc(-c2cc(Cl)sc2Cl)n1

>  <MEASUREMENT_TYPE>
SI (DU145)

>  <MEASUREMENT>
3.14

$$$$

Name the reported SI (DU145) value associated with the compound COc1cc(-c2cccc([N+](=O)[O-])c2)cc(-c2cc(Cl)sc2Cl)n1 3.33

What would you report for COc1nc(-c2cc(Cl)sc2Cl)cc(-c2ccc([N+](=O)[O-])cc2)c1C#N ? 105.93

What would you report for COc1nc(-c2cc(Cl)sc2Cl)cc(-c2ccc(Cl)cc2)c1C#N ? 2.18

What would you report for O=c1[nH]cc(F)c(=O)[nH]1 [5-fluorouracil, reference compound] ? 96.60

What would you report for COc1cc(-c2ccc(C)cc2)cc(-c2cc(Cl)sc2Cl)n1 ? 1.59

What would you report for COc1cc(-c2ccccc2)cc(-c2cc(Cl)sc2Cl)n1 ? 1.67
